- SYSTEM_NAME: S. aureus SPase (Staphylococcus aureus, UniProt P0A070)
- Sequence (P0A070 whole entry): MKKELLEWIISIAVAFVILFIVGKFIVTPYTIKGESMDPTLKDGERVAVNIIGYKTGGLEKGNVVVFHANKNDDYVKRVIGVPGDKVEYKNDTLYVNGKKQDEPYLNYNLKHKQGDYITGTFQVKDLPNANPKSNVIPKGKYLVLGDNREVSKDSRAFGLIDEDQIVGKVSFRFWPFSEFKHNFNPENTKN
- TEST_SUMMARY: biochemical
Square brackets hold non-standard residues; d marks the D form. Peptide text beside a SMILES is read from it. * marks the point of attachment. ξ: configuration not given here. Biphenylcarbonyl(4'-Bu) = CCCCc1ccc(-c2ccc(C(=O)*)cc2)cc1; X1 = C[C@H](N*)B1OC2C[C@@H]3C[C@@H](C3(C)C)[C@]2(C)O1; Benzoyl(4-(4-Cl-Ph)) = O=C(c1ccc(-c2ccc(Cl)cc2)cc1)*; Dab = NCC[C@H](N)C(=O)O; boroGly = OB(O)CN*; ξP = O=C(O)C1CCCN1
Here the recorded IC50 is given for each entry.
Reply with just the number (in nM).

compound="CCCCc1ccc(-c2ccc(C(=O)N[C@@H](CCN)C(=O)N[C@H](C(=O)N[C@@H](C)C(=O)N[C@@H](CCCCN)C(=O)N[C@@H](C)B3OC4C[C@@H]5C[C@@H](C5(C)C)[C@]4(C)O3)[C@@H](C)O)cn2)cc1 (stereo partly shown) [Compound 234]" system_name="S. aureus SPase (Staphylococcus aureus, UniProt P0A070)" experimental_endpoint=IC50 assay_value=53

## Input Need IC50 of CCCCc1ccc(-c2ccc(C(=O)N[C@H](CO)C(=O)N[C@H](C)C(=O)NCC(=O)N3CCCC3C(=O)N[C@@H](C)C(=O)N[C@@H](CC(N)=O)C(=O)NCB(O)O)cc2)cc1 (stereo partly shown) [Compound 117] ({Biphenylcarbonyl(4'-Bu)}-[dS][dA]G[ξP]AN-boroGly) , thanks.
## Output 350

## Input Now this one: CC(C)C[C@H](NC(=O)[C@H](C)NC(=O)[C@H](CCN)NC(=O)[C@H](CCN)NC(=O)c1ccc(-c2ccc(Cl)cc2)cc1)C(=O)N[C@@H](C)B1OC2C[C@@H]3C[C@@H](C3(C)C)[C@]2(C)O1 (stereo partly shown) [Compound 173] ({Benzoyl(4-(4-Cl-Ph))}-[Dab][Dab]AL-X1)
## Output 550

## Input Now this one: CCCCc1ccc(-c2ccc(C(=O)N3CCC(C(=O)N[C@H](C(=O)N[C@@H](C)C(=O)N[C@@H](CCCCN)C(=O)N[C@@H](C)B4O[C@@H]5C[C@@H]6C[C@@H](C6(C)C)[C@]5(C)O4)[C@@H](C)O)CC3)cc2)cc1 [Compound 272]
## Output 50

====

Here the recorded pIC50 is given for each entry.
- SYSTEM_NAME: E. coli SPase (Escherichia coli)
- TEST_SUMMARY: Biochemical SPase activity assay (fluorogenic peptide substrate), E. coli enzyme
Square brackets hold non-standard residues; d marks the D form. Peptide text beside a SMILES is read from it. * marks the point of attachment. ξ: configuration not given here. Biphenylcarbonyl(4'-Bu) = CCCCc1ccc(-c2ccc(C(=O)*)cc2)cc1; X1 = C[C@H](N*)B1OC2C[C@@H]3C[C@@H](C3(C)C)[C@]2(C)O1; NMeK = CN[C@@H](CCCCN)C(=O)O; X8 = C[C@H](N*)C(=O)C(N)=O; Abu = CC[C@H](N)C(=O)O; Dap = NC[C@H](N)C(=O)O; ξK = NCCCCC(N)C(=O)O; boroGly = OB(O)CN*; βAla = NCCC(=O)O
// pIC50 is dimensionless: -log10 of concentration (M)

compound="CCCCc1ccc(-c2ccc(C(=O)NC(CCCCN)C(=O)N[C@@H](CCCCN)C(=O)N[C@@H](C)C(=O)N[C@@H](CC(C)C)C(=O)N[C@@H](C)C(=O)C(N)=O)cc2)cc1 (stereo partly shown) [Compound 253] ({Biphenylcarbonyl(4'-Bu)}-[ξK]KAL-X8)" assay_value=5.32
compound="CCCCc1ccc(-c2ccc(C(=O)N[C@@H](CN)C(=O)N[C@@H](CN)C(=O)N[C@@H](C)C(=O)N[C@@H](CC(C)C)C(=O)N[C@@H](C)B3OC4C[C@@H]5C[C@@H](C5(C)C)[C@]4(C)O3)cc2)cc1 (stereo partly shown) [Compound 170] ({Biphenylcarbonyl(4'-Bu)}-[Dap][Dap]AL-X1)" assay_value=8.00
compound="CCCCc1ccc(-c2ccc(C(=O)N[C@H](CO)C(=O)N[C@H](C)C(=O)NCC(=O)N(C)[C@@H](CCCCN)C(=O)N[C@@H](C)C(=O)N[C@@H](CC(N)=O)C(=O)NCB(O)O)cc2)cc1 [Compound 120] ({Biphenylcarbonyl(4'-Bu)}-[dS][dA]G[NMeK]AN-boroGly)" assay_value=5.80

Field: next compound
## Input Need pIC50 of CCCCc1ccc(-c2ccc(C(=O)NCCC(=O)N[C@@H](CCCCN)C(=O)N[C@H](C(=O)N[C@@H](CC)C(=O)N[C@@H](CC(N)=O)C(=O)N[C@@H](C)B3OC4C[C@@H]5C[C@@H](C5(C)C)[C@]4(C)O3)[C@@H](C)O)cc2)cc1 (stereo partly shown) [Compound 206] ({Biphenylcarbonyl(4'-Bu)-βAla}-KT[Abu]N-X1) , thanks.
## Output 8.20

====

Here the recorded IC50 is given for each entry.
- SYSTEM_NAME: S. aureus SPase (Staphylococcus aureus, UniProt P0A070)
- TEST_SUMMARY: biochemical
Square brackets hold non-standard residues; d marks the D form. Peptide text beside a SMILES is read from it. * marks the point of attachment. ξ: configuration not given here. Biphenylcarbonyl(4'-Bu) = CCCCc1ccc(-c2ccc(C(=O)*)cc2)cc1; Lys(Me3) = C[N+](C)(C)CCCC[C@H](N)C(=O)O; NMeY = CN[C@@H](Cc1ccc(O)cc1)C(=O)O; Thr(3ξ) = CC(O)[C@H](N)C(=O)O; boroAla = C[C@H](N*)B(O)O; boroGly = OB(O)CN*
Reply with just the number (in nM).

Worked cases, answers included:
compound="CCCCc1ccc(-c2ccc(C(=O)N[C@H](CO)C(=O)N[C@H](C)C(=O)N3CCC[C@H]3C(=O)N[C@H](C(=O)N[C@@H](C)C(=O)N[C@@H](CC(N)=O)C(=O)NCB(O)O)C(C)O)cc2)cc1 (stereo partly shown) [Compound 116] ({Biphenylcarbonyl(4'-Bu)}-[dS][dA]P[Thr(3ξ)]AN-boroGly)" experimental_endpoint=IC50 assay_value=38
compound="CCCCc1ccc(-c2ccc(C(=O)N[C@@H](CCCCN)C(=O)N3CCC[C@H]3C(=O)N[C@@H](C)C(=O)N[C@@H](CC(N)=O)C(=O)N[C@@H](C)B(O)O)cc2)cc1 [Compound 158] ({Biphenylcarbonyl(4'-Bu)}-KPAN-boroAla)" experimental_endpoint=IC50 assay_value=400
compound="CCCCc1ccc(-c2ccc(C(=O)N[C@@H](CCCC[N+](C)(C)C)C(=O)N[C@H](C(=O)N[C@@H](C)C(=O)N[C@@H](CCCCN)C(=O)N[C@@H](C)B(O)O)[C@@H](C)O)cc2)cc1 [Compound 159] ({Biphenylcarbonyl(4'-Bu)}-[Lys(Me3)]TAK-boroAla)" experimental_endpoint=IC50 assay_value=86

Field: next compound
## Input Need IC50 of CCCCc1ccc(-c2ccc(C(=O)N[C@@H](CCCCN)C(=O)N(C)[C@@H](Cc3ccc(O)cc3)C(=O)N[C@@H](C)C(=O)N[C@@H](CCCCN)C(=O)N[C@@H](C)B(O)O)cc2)cc1 [Compound 157] ({Biphenylcarbonyl(4'-Bu)}-K[NMeY]AK-boroAla) , thanks.
## Output 1000

====

- SYSTEM_NAME: E. coli SPase (Escherichia coli, UniProt P00803)
- Sequence (P00803 whole entry): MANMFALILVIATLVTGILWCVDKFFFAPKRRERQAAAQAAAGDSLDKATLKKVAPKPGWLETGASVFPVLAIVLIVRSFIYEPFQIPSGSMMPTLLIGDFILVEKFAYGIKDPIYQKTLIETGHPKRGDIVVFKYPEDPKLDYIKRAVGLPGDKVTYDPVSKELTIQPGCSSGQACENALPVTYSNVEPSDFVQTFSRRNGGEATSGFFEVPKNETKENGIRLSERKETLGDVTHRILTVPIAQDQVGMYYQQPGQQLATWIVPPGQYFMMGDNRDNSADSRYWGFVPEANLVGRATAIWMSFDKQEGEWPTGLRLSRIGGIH
- TEST_SUMMARY: Biochemical SPase activity assay (fluorogenic peptide substrate), E. coli enzyme
pIC50: −log10 of the molar value. Square brackets hold non-standard residues; d marks the D form. Peptide text beside a SMILES is read from it. * marks the point of attachment. ξ: configuration not given here. boroAla((+)-pinanediol) = C[C@H](N*)B1O[C@@H]2C[C@@H]3C[C@@H](C3(C)C)[C@]2(C)O1; Biphenylcarbonyl(4'-Bu) = CCCCc1ccc(-c2ccc(C(=O)*)cc2)cc1; X1 = C[C@H](N*)B1OC2C[C@@H]3C[C@@H](C3(C)C)[C@]2(C)O1; Benzoyl(4-hexyl) = CCCCCCc1ccc(C(=O)*)cc1; NMeThr(3ξ) = CN[C@H](C(=O)O)C(C)O; NMeE = CN[C@@H](CCC(=O)O)C(=O)O; boroAla = C[C@H](N*)B(O)O; Aze = O=C(O)[C@@H]1CCN1; Dab = NCC[C@H](N)C(=O)O; Ac3c = NC1(C(=O)O)CC1; boroGly = OB(O)CN*; βAla = NCCC(=O)O
# binarize pIC50: threshold 7 inclusive, high side t, low side f

molecule="CCCCc1ccc(-c2ccc(C(=O)NCCC(=O)N[C@@H](CCCCN)C(=O)N3CCC[C@H]3C(=O)N[C@@H](C)C(=O)N[C@@H](CC(N)=O)C(=O)N[C@@H](C)B(O)O)cc2)cc1 [Compound 220] ({Biphenylcarbonyl(4'-Bu)-βAla}-KPAN-boroAla)" system_name="E. coli SPase (Escherichia coli, UniProt P00803)" category_label=t
molecule="CCCCCCc1ccc(C(=O)N[C@H](CO)C(=O)N[C@H](C)C(=O)NCC(=O)N(C)[C@H](C(=O)N[C@@H](C)C(=O)N[C@@H](CC(N)=O)C(=O)NCC=O)C(C)O)cc1 (stereo partly drawn) [Compound 101] ({Benzoyl(4-hexyl)}-[dS][dA]G[NMeThr(3ξ)]ANG-aldehyde)" system_name="E. coli SPase (Escherichia coli, UniProt P00803)" category_label=f
molecule="CCCCc1ccc(-c2ccc(C(=O)N[C@@H](CCCCN)C(=O)N[C@H](C(=O)N[C@@H](C)C(=O)N[C@@H](CC(N)=O)C(=O)N[C@@H](C)B(O)O)[C@@H](C)O)cc2)cc1 [Compound 131] ({Biphenylcarbonyl(4'-Bu)}-KTAN-boroAla)" system_name="E. coli SPase (Escherichia coli, UniProt P00803)" category_label=t
molecule="CCCCc1ccc(-c2ccc(C(=O)NCCC(=O)N[C@@H](CCCCN)C(=O)N[C@H](C(=O)N[C@@H](C)C(=O)N[C@@H](Cc3c[nH]cn3)C(=O)N[C@@H](C)B3OC4C[C@@H]5C[C@@H](C5(C)C)[C@]4(C)O3)[C@@H](C)O)cc2)cc1 (stereo partly drawn) [Compound 196] ({Biphenylcarbonyl(4'-Bu)-βAla}-KTAH-X1)" system_name="E. coli SPase (Escherichia coli, UniProt P00803)" category_label=t
molecule="CCCCCCc1ccc(C(=O)N[C@H](CO)C(=O)N[C@H](C)C(=O)NCC(=O)N(C)[C@H](C(=O)N[C@@H](C)C(=O)N[C@@H](CC(N)=O)C(=O)NCB(O)O)C(C)O)cc1 (stereo partly drawn) [Compound 124] ({Benzoyl(4-hexyl)}-[dS][dA]G[NMeThr(3ξ)]AN-boroGly)" system_name="E. coli SPase (Escherichia coli, UniProt P00803)" category_label=f
molecule="CCCCc1ccc(-c2ccc(C(=O)N[C@@H](CCN)C(=O)N3CC[C@H]3C(=O)N[C@@H](C)C(=O)N[C@@H](CCCCN)C(=O)N[C@@H](C)B3O[C@@H]4C[C@@H]5C[C@@H](C5(C)C)[C@]4(C)O3)cc2)cc1 [Compound 183] ({Biphenylcarbonyl(4'-Bu)}-[Dab][Aze]AK-{boroAla((+)-pinanediol)})" system_name="E. coli SPase (Escherichia coli, UniProt P00803)" category_label=t
molecule="CCCCc1ccc(-c2ccc(C(=O)N[C@@H](CCCCN)C(=O)NC(C(=O)N[C@@H](C)C(=O)N[C@@H](CCCCN)C(=O)N[C@@H](C)B(O)O)c3ccc(OC)cc3)cc2)cc1 (stereo partly drawn) [Compound 166]" system_name="E. coli SPase (Escherichia coli, UniProt P00803)" category_label=t
molecule="CCCCc1ccc(-c2ccc(C(=O)N[C@@H](CCCCN)C(=O)NC3(C(=O)N[C@@H](C)C(=O)N[C@@H](CCCCN)C(=O)N[C@@H](C)B4OC5C[C@@H]6C[C@@H](C6(C)C)[C@]5(C)O4)CC3)cc2)cc1 (stereo partly drawn) [Compound 137] ({Biphenylcarbonyl(4'-Bu)}-K[Ac3c]AK-X1)" system_name="E. coli SPase (Escherichia coli, UniProt P00803)" category_label=f

## Input # bool: pIC50 of CCCCc1ccc(-c2ccc(C(=O)NCCC(=O)N[C@@H](CCCCN)C(=O)N[C@H](C(=O)N[C@H](C(=O)N[C@@H](CC(N)=O)C(=O)N[C@@H](C)B3OC4C[C@@H]5C[C@@H](C5(C)C)[C@]4(C)O3)C(C)C)[C@@H](C)O)cc2)cc1 (stereo partly drawn) [Compound 212] ({Biphenylcarbonyl(4'-Bu)-βAla}-KTVN-X1) >= 7
## Output t

## Input Now this one: CCCCc1ccc(-c2ccc(C(=O)N[C@H](CO)C(=O)N[C@H](C)C(=O)NCC(=O)N(C)[C@@H](CCC(=O)O)C(=O)N[C@@H](C)C(=O)N[C@@H](CC(N)=O)C(=O)N[C@@H](C)B3OC4C[C@@H]5C[C@@H](C5(C)C)[C@]4(C)O3)cc2)cc1 (stereo partly drawn) [Compound 229] ({Biphenylcarbonyl(4'-Bu)}-[dS][dA]G[NMeE]AN-X1)
## Output f

## Input Now this one: CCCCc1ccc(-c2ccc(CNCC[C@H](NC(C)=O)C(=O)N[C@H](C(=O)N[C@@H](C)C(=O)N[C@@H](CCCCN)C(=O)N[C@@H](C)B3OC4C[C@@H]5C[C@@H](C5(C)C)[C@]4(C)O3)[C@@H](C)O)cc2)cc1 (stereo partly drawn) [Compound 277]
## Output f

## Input Now this one: CCCCc1ccc(-c2ccc(C(=O)N[C@@H](CO)C(=O)N[C@H](C(=O)N[C@@H](C)C(=O)N[C@@H](CCCCN)C(=O)N[C@@H](C)B(O)O)[C@@H](C)O)cc2)cc1 [Compound 164] ({Biphenylcarbonyl(4'-Bu)}-STAK-boroAla)
## Output t

## Input Now this one: C[C@H](NC(=O)[C@H](CCCCN)NC(=O)[C@H](C)NC(=O)[C@@H](NC(=O)[C@H](CCN)NC(=O)c1ccc(-c2ccc(C(F)(F)F)cc2)cc1)[C@@H](C)O)B1OC2C[C@@H]3C[C@@H](C3(C)C)[C@]2(C)O1 (stereo partly drawn) [Compound 237]
## Output t
